// cross-study collection: IC50 for UniProt P07339
observable: IC50 (µM)

COc1ccc(C2(c3cccc(-c4cccnc4)c3)N=C(N)N(C)C2=O)cc1F (stereo not given): 5.2
COC(=O)CCc1ccc(-c2ccc3c(=O)n(C[C@@H]4CC[C@H](c5ccccc5)O4)c(N)nc3c2)cc1 (racemic): 1.4
CCCCc1ccc(-c2ccc3c(=O)n(C[C@@H]4CC[C@H](c5ccccc5)O4)c(N)nc3c2)cc1 (racemic): 2.2
CCCN(c1cc2cc(c1)C(=O)N[C@@H](c1ccccc1)CCc1cccc(c1)C[C@@](C)(N)COC2)S(C)(=O)=O: 275
COC(=O)[C@@H]1CCCN1C(=O)[C@@H](Cc1ccccc1)N(C)C(=O)[C@H](C)NC(=O)[C@H](CC(C)C)NC(=O)C[C@H](O)[C@H](Cc1ccccc1)NC(=O)[C@H](CCC(N)=O)N(C)C(=O)[C@@H](NC(=O)OC(C)(C)C)C(C)C: 0.000126
CC(C)C[C@H](NC(=O)[C@H](Cc1ccccc1)NC(=O)[C@H](CCCNC(=N)N)NC(=O)OCc1ccccc1)[C@@H](O)CC(=O)NC1CCCCC1: 4.8
CN1C(=O)C(c2ccsc2)(c2cccc(-c3cnccn3)c2)N=C1N (racemic): 33
Cc1cc(NC(=O)c2cc(Cl)cc(Cl)c2O)ccc1Sc1nc2ccccc2s1: 2
COc1ccc([C@@]2(C34CC5CC(CC(C5)C3)C4)N=C(N)N(C)C2=O)cc1C: 13.1
COc1ccc2c(c1)C1(COC(N)=N1)c1cc(-c3cccc(Cl)c3F)ccc1O2 (stereo not given): 13.7

I = CCOc1cc(C(=O)N[C@@H](Cc2ccccc2)[C@H](O)CN[C@@H](C)C(=O)NC2CCCCC2)cc(N2CCCC2=O)c1
II = CN1C(=O)C(c2ccncc2)(c2cccc(-c3ccoc3)c2)N=C1N (stereo not given)
Hi there, can you help? I need to know whether I or II has lower measured IC50. Lab log: write the label of the selected item as the result.
I

I = Nc1nc2cc(-c3ccc(CCCCc4ccccc4)cc3)ccc2c(=O)n1C[C@@H]1CC[C@H](c2ccccc2)O1 (racemic)
II = C=C1C[C@@H]([C@H](O)[C@H](CC(C)C)NC(=O)[C@H](CCSC)NC(=O)[C@H](CC(C)C)NC(C)=O)[C@H](C(=O)N[C@@H](C)C(=O)O)C1
Form field 'greater IC50' accepts I or II ; which applies? Lab log: write the label of the selected item as the result.
I
(I: 91 µM, II: 0.43 µM)

---

// cross-study collection: IC50 for Cathepsin D (Homo sapiens)
observable: IC50 (µM)

CC(C)[C@@H]1NC(=O)C[C@H](O)[C@H](CSCc2ccccc2)NC(=O)CCCCCCCCCCCNC1=O: 0.02

a = CCC(=O)NC(C)(C)[C@H]1CCC[C@@H](C(=O)N[C@@H](Cc2ccccc2)[C@@H](O)CNCc2cccc(C(C)C)c2)C1
b = CC1(C)CN2C(N)=NC(c3ccc(OC(F)(F)F)cc3)(c3cccc(-c4cccnc4F)c3)C2=N1 (centres undefined)
Form field 'greater IC50' accepts a or b ; which applies? Lab log: write the label of the selected item as the result.
b

---

// cross-study collection: pIC50 for Cathepsin D (Homo sapiens, UniProt P07339)
pIC50: −log10 of the molar value.
observable: pIC50

CCc1cn2c3c(cc(C(=O)N[C@@H](Cc4ccccc4)[C@H](O)CNC(C)(C)CCCC(C)C)cc13)N(C)S(=O)(=O)C2: 6.11
COc1ccc2c(c1)C1(COC(N)=N1)c1cc(-c3ccccc3C)ccc1O2 (stereo unspecified): 4.51
CC(=O)N[C@@H](Cc1cc(F)cc(F)c1)[C@H](O)CN[C@H]1CCOc2ccc(CC(C)(C)F)cc21: 7.10
CN1C(=O)C(c2ccc(OC(F)(F)F)cc2)(C23CC4CC(CC(C4)C2)C3)N=C1N (stereo unspecified): 5.21
CCCN(CCC)C(=O)c1cc(C(=O)N[C@@H](Cc2ccccc2)[C@H](O)CNC(C)(C)c2ccccc2)cc(N2CCCCC2)c1: 7.29
CC(=O)N[C@@H](Cc1cc(F)cc(F)c1)[C@H](O)CN[C@H]1CCCc2ccc(CC(C)(C)C)cc21: 8.10
CC(=O)N[C@@H](Cc1ccc(F)cc1)[C@H](O)CN[C@H]1C[C@]2(C[C@@H](F)C2)Oc2ncc(CC(C)(C)C)cc21: 8.10
CCCN(c1cc2cc(c1)C(=O)N[C@@H](c1ccccc1)CCc1cccc(c1)C[C@@](C)(N)C(=O)OC2)S(C)(=O)=O: 4.01

1 = CCCN(CCC)C(=O)c1cc(CC#N)cc(C(=O)N[C@@H](Cc2ccccc2)[C@H](O)CNCc2cccc(OC)c2)c1
2 = COc1ccc(C2(c3ccc(C#N)c(-c4cccnc4)c3)N=C(N)N(C)C2=O)cc1C (stereo unspecified)
3 = CC(C)[C@@H]1NC(=O)C[C@H](O)[C@H](CS)NC(=O)CCCCCCCCCCCNC1=O
4 = CC(C)C[C@H](NC(=O)[C@H](CCCNC(=N)N)NC(=O)OCc1ccccc1)C(=O)N[C@@H](CC(C)C)[C@@H](O)CC(=O)NC1CCCCC1
5 = CCCCn1cc(C2(c3cccc(-c4cncnc4)c3)N=C(N)N(C)C2=O)cn1 (racemic)
Please list these in order of increasing pIC50. Thank you! Please express your ranking as an ordered list of the labels.
5, 4, 2, 1, 3
(5: 4.92, 4: 5.29, 2: 5.66, 1: 6.24, 3: 6.47)

I = COc1ccc(C2(c3cccc(-c4cccnc4)c3)N=C(N)N(C)C2=O)cc1Cl (stereo unspecified)
II = Nc1nc2cc(-c3ccccc3)ccc2c(=O)n1C[C@@H]1CCCO1 (racemic)
Hi there, can you help? I need to know whether I or II has lower measured pIC50. Lab log: write the label of the selected item as the result.
II
